Sourced from patent US6821980B1

target: purified DHFR of strain 157/4696 of Staphylococcus aureus (Staphylococcus aureus, UniProt P13955); test: biochemical
Sequence (P13955 whole entry): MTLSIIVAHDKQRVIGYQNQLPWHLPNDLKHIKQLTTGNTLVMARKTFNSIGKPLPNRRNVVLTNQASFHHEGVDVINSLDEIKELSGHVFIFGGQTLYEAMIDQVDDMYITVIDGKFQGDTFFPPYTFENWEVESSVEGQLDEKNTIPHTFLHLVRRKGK
I'd appreciate it if you could supply IC50 values for the items below.
Dear colleague, please return just the value in µM, with no unit written.

## Input Give reported IC50 value for CCOc1cc(Cc2cnc(N)nc2N)cc(OCC2(C)CC2)c1-c1ccc(O)cc1 [Example 08-o]
## Output 1.4

## Input Item CCOc1cc(Cc2cnc(N)nc2N)cc(OCC)c1-c1ccc(N)cc1 [Example 04-c] : provide IC50
## Output 0.7

## Input Provide only the value of recorded IC50 for CCOc1cc(Cc2cnc(N)nc2N)cc(OCC)c1-c1cc(C)cc(N)c1 [Example 04-ae]
## Output 1.4

## Input Fill in IC50 for record CCOc1cc(Cc2cnc(N)nc2N)cc(OCC)c1-c1ccc(CO)s1 [Example 02-ab]
## Output 0.88

## Input Note down IC50 recorded for CCOc1cc(Cc2cnc(N)nc2N)cc(OCC)c1-c1ccc2c(c1)NCCO2 [Example 02-h]
## Output 1.2

## Input Give the reported IC50 for this compound. CCOc1cc(Cc2cnc(N)nc2N)cc(OS(=O)(=O)CC(C)(C)C)c1-c1ccc(O)cc1 [Example 15-h]
## Output 0.92
